molecular target: T1, TNF alpha (UniProt P01375 77-233, limits assumed); assay: SPR (BIAcore 3000), TNF alpha captured by immobilised antibody AHC3712, binder injected
T1 construct: also called tumour necrosis factor; TNFSF2
T1 sequence (P01375 77-233 limits assumed): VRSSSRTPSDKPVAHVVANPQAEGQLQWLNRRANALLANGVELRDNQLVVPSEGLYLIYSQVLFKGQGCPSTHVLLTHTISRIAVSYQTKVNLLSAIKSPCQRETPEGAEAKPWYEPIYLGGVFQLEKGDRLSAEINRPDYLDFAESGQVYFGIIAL
measuredEndpoint: pKd
Give bare numbers, as −log10 of the molar value.

// recorded pKd for TN-2-C (trimeric) (designed binder, also called trimeric version of TN3-2-C) EPPTQKPKKIVNAKKDVVNTKMFEELKSRLDTLAQEVALLKEQQALQTVCLKGTKVHMKCFLAFTQTKTFHEASEDCISRGGTLSTPQTGSENDALYEYLRQSVGNEAEIWLGLNKVRSRYFWVDMTGTRIAYKNWETEITAQPDPTNRENCAVLSGAANGKWFDKRCRDQLPYICQFGIV : 8.40

Reported pKd of TN-2-D (trimeric) (designed binder, also called trimeric version of TN3-2-D) EPPTQKPKKIVNAKKDVVNTKMFEELKSRLDTLAQEVALLKEQQALQTVCLKGTKVHMKCFLAFTQTKTFHEASEDCISRGGTLSTPQTGSENDALYEYLRQSVGNEAEIWLGLNKVRSRYFWIDMTGTRIAYKNWETEITAQPDPNNRENCAVLSGAANGKWFGKRCRDQLPYICQFGIV : 8.39

Next up:
For record TN3-2-C (monomeric) (designed binder, Purified monomer from the E. coli periplasm (pBAD) for SPR) ALQTVCLKGTKVHMKCFLAFTQTKTFHEASEDCISRGGTLSTPQTGSENDALYEYLRQSVGNEAEIWLGLNKVRSRYFWVDMTGTRIAYKNWETEITAQPDPTNRENCAVLSGAANGKWFDKRCRDQLPYICQFGIV the listed pKd is 6.82
